Measured melting point values are reported for all entries that follow.

CCCCOc1ccc2c(c1)[C@H](C1(OC)C=CC=CC1)[C@@H](C(=O)O)[C@@H]2c1ccc2c(c1)OCO2 (mixture of isomers)    157 to 158 °C
COc1ccc(C2C(C(=O)O)=C(c3ccccc3)c3ccccc32)cc1 (racemic)    191 to 193 °C
COc1ccc([C@H]2c3cc(OC)ccc3[C@@H](c3ccc4c(c3)OCO4)[C@H]2C(=O)O)cc1 (racemic)    129 to 131 °C
CCCOc1ccc2c(c1)[C@H](c1ccc(OC)cc1OCC(C)C)[C@@H](C(=O)O)[C@@H]2c1ccc2c(c1)OCO2 (racemic)    85 to 89 °C
O=C(O)[C@H]1[C@H](c2ccc(O)cc2)c2ccccc2[C@@H]1c1ccc2c(c1)OCO2 (racemic)    94 to 96 °C
CCCOc1ccc2c(c1)[C@H](c1ccc(OC)cc1OCOC)[C@@H](C(=O)O)[C@@H]2c1ccc2c(c1)OCO2 (racemic)    161 to 163 °C
CCCOc1ccc2c(c1)[C@H](c1ccc(OCC)cc1OCC(=O)O)[C@@H](C(=O)O)[C@@H]2c1ccc2c(c1)OCO2 (racemic)    194 to 196 °C
CCCOc1ccc2c(c1)[C@H](c1ccc(OC)cc1CCC)[C@@H](C(=O)O)[C@@H]2c1ccc2c(c1)OCO2 (racemic)    155 to 156 °C
COc1ccc([C@@H]2c3cc(OC)ccc3[C@@H](c3ccc4c(c3)OC(OC)O4)[C@H]2C(=O)O)cc1 (mixture of isomers)    149 to 150 °C
CCCOc1ccc2c(c1)[C@H](c1ccc(OC)cc1OCC(=O)[O-])[C@@H](C(=O)O[C@@H](C)OC(=O)C(C)(C)OC)[C@@H]2c1ccc2c(c1)OCO2.[Na+] (racemic)    178 to 181 °C (dec.)

So what does the record say about melting point for CCCOc1ccc2c(c1)[C@H](c1ccc(OC(C)C)cc1OCC(=O)O)[C@H](C(=O)O)[C@@H]2c1ccc2c(c1)OCO2 (racemic) ?
183 to 185 °C

Query (compound): CCCOc1ccc2c(c1)[C@H](c1ccccc1OCCC)[C@@H](C(=O)O)[C@@H]2c1ccc2c(c1)OCO2 (racemic) ; field requested: melting point
179 to 180 °C

Quick one: melting point of C=CCc1cc(OC)ccc1[C@H]1c2cc(OCCC)ccc2[C@@H](c2ccc3c(c2)OCO3)[C@@H]1C(=O)O (racemic) ?
126 to 127 °C

Looking for the measured melting point of COc1ccc([C@@H]2c3ccccc3[C@H](c3ccc4c(c3)OCO4)[C@H]2c2nnn[nH]2)cc1 (racemic) (hydrate or solvate) , can you help?
155 to 157 °C

Fill in the blank: the reported melting point of CCCOc1ccc2c(c1)[C@H](c1ccc(OC)cc1OCC(=O)O)[C@@H](CNS(=O)(=O)C(F)(F)F)[C@@H]2c1ccc2c(c1)OCO2 (racemic) is ____.
184 to 186 °C

So what's the measured melting point for this one? CCOc1ccc([C@@H]2c3ccccc3[C@H](c3ccc4c(c3)OCO4)[C@H]2C(=O)O)cc1 (racemic)
169 to 170 °C

Entry under review: COc1cc(OC)c([C@H]2c3ccc(O)cc3[C@@H](c3ccc4c(c3)OCO4)[C@@H]2C(=O)O)c(OC)c1 (racemic) . Reported melting point?
225 to 226 °C

Which melting point value is on record for CCCOc1ccc2c(c1)[C@H](c1ccc(OC)cc1OC(C)C)[C@@H](C(=O)O)[C@@H]2c1ccc2c(c1)OCO2 (racemic) ?
75 to 79 °C

# input compound: COc1cccc([C@@H]2c3ccccc3[C@H](c3ccc4c(c3)OCO4)[C@H]2C(=O)O)c1 (racemic) ; wanted: its melting point
131 to 133 °C
